Reference source: patent US20260092061A1

# tested-system: BRD9 (Homo sapiens, UniProt Q9H8M2)
# Sequence (Q9H8M2 1-597): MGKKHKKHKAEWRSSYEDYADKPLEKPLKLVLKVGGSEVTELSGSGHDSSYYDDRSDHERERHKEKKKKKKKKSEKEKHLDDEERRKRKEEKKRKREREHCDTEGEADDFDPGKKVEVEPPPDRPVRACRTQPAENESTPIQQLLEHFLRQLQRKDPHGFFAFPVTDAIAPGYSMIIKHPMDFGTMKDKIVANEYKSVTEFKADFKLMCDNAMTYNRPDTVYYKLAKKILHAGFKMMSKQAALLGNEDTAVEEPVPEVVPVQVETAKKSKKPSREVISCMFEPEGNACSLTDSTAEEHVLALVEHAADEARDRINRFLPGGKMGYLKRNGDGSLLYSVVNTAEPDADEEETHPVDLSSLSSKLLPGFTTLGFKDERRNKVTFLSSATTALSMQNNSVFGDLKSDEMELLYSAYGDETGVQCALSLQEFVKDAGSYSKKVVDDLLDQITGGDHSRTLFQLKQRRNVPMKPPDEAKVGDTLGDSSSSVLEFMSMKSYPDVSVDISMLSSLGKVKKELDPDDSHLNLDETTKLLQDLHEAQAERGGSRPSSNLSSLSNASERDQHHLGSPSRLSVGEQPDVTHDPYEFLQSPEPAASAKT
# assay: Degradation of BRD9 (IF), immunofluorescence in MV4-11 cells, 24 hours (Assay Protocol 2)
# Format: cell-based
# Design: A suspension of MV4-11 cells (ATCC CRL-9591) was prepared; host or cells: MV4-11
# conditions: Assay protocol 2; BRD9 degradation; read-out: DC50
Hi there, I'd appreciate the recorded DC50 for every entry that follows.

Q. Return reported DC50 for target or system BRD9 (Homo sapiens, UniProt Q9H8M2), item COc1ccnc(/C=C(\C#N)C(=O)N2CCc3c(CN4CCN(Cc5c(OC)cc(-c6cn(C)c(=O)c(C)c6C)cc5OC)CC4)cccc3C2C)c1 (mixture of isomers) [Compound B52] .
A. 25 to 1000 nM

Q. State DC50 on BRD9 (Homo sapiens, UniProt Q9H8M2). Entry: COc1cc(-c2cn(C)c(=O)c(C)c2C)cc(OC)c1CN1CCN(Cc2ccc3c(c2)[C@@H](C(C)C)N(C(=O)/C(C#N)=C/C(C)(C)C)CC3)C2(CC2)C1 (single isomer, unassigned) [Compound C88]
A. 25 to 1000 nM

Q. Report DC50 under test system BRD9 (Homo sapiens, UniProt Q9H8M2) for COc1cc(-c2cn(C)c(=O)c(C)c2C)cc(OC)c1CN1CCN(Cc2cccc3c2CCN(C(=O)/C(C#N)=C/C(C)(C)C)C3C)C2(CC2)C1 (mixture of isomers) [Compound B47] .
A. < 1.25 nM

Q. Write down the reported DC50 (system: BRD9 (Homo sapiens, UniProt Q9H8M2)) of COc1cc(-c2cn(C)c(=O)c(C)c2C)cc(OC)c1CN1CCN(Cc2cccc3c2CCN(C(=O)/C(C#N)=C/C(C)(C)F)C3C)C2(CC2)C1 (mixture of isomers) [Compound B140]
A. < 1.25 nM

Q. Param request: DC50 | system BRD9 (Homo sapiens, UniProt Q9H8M2) | item COc1cc(-c2cn(C)c(=O)c(C)c2C)cc(OC)c1CN1CCN(Cc2cccc3c2CCN(C(=O)/C(C#N)=C/C(C)(C)C)C3C(F)F)C2(CC2)C1 (mixture of isomers) [Compound C13]
A. < 1.25 nM

Q. Supply DC50 measured with BRD9 (Homo sapiens, UniProt Q9H8M2) for COc1cc(-c2cn(C)c(=O)c(C)c2C)cc(OC)c1CN1CCN(Cc2ccc3c(c2)[C@@H](C)N(C(=O)/C(C#N)=C/C(C)(C)O)CC3)C2(CC2)C1 (single isomer, unassigned) [Compound C39] .
A. < 1.25 nM

Q. Given COc1cc(-c2cn(C)c(=O)c(C)c2C)cc(OC)c1CN1CC2CC(C1)N2Cc1ccc2c(c1)[C@@H](C)N(C(=O)/C(C#N)=C/C(C)(C)C)CC2 (single isomer, unassigned) [Compound C64] , report its DC50 on BRD9 (Homo sapiens, UniProt Q9H8M2).
A. 25 to 1000 nM

Q. Give reported DC50 for COc1cc(-c2cn(C)c(=O)c(C)c2C)cc(OC)c1CN1CCC(N(C)c2cccc3c2CCN(C(=O)/C(C#N)=C/C(C)(C)C)C3C)C(F)(F)C1 (mixture of isomers) [Compound C57] (BRD9 (Homo sapiens, UniProt Q9H8M2))
A. 25 to 1000 nM

Q. Param request: DC50 | system BRD9 (Homo sapiens, UniProt Q9H8M2) | item COc1cc(-c2cn(C)c(=O)c(C)c2C)cc(OC)c1CN1CCN(Cc2cccc3c2CCN(C(=O)/C(C#N)=C/C(C)(C)CF)C3C(C)C)CC12CC2 (mixture of isomers) [Compound C25]
A. 1.25 to 10 nM

Q. # lookup: BRD9 (Homo sapiens, UniProt Q9H8M2) DC50, key = COc1cc(-c2cn(C)c(=O)c(C)c2C)cc(OC)c1CN1CCN(CC(=O)NCCOc2ccc3c(c2)CCN(C(=O)/C(C#N)=C/c2nccs2)C3C)CC1 (mixture of isomers) [Compound B31]
A. 10 to 25 nM

Q. Identify measured DC50 obtained with BRD9 (Homo sapiens, UniProt Q9H8M2) for CCC(C)(C)/C=C(\C#N)C(=O)N1CCc2c(CN3CCN(Cc4c(OC)cc(-c5cn(C)c(=O)c(C)c5C)cc4OC)CC34CC4)cccc2C1C (mixture of isomers) [Compound B117] .
A. 1.25 to 10 nM

Q. Fill in DC50 for COc1cc(-c2cn(C)c(=O)c(C)c2C)ccc1OC1CCN(Cc2cccc3c2CCN(C(=O)/C(C#N)=C\C(C)(C)C)C3C)C(C)(C)C1 (centres unmarked) [Compound C58] tested with BRD9 (Homo sapiens, UniProt Q9H8M2).
A. 10 to 25 nM

Q. Would you please give the reported DC50 of COc1cc(-c2cn(C)c(=O)c(C)c2C)cc(OC)c1CN1CCN(C(=O)c2cccc(C3CCCN3C(=O)/C(C#N)=C/C(C)(C)C)c2)CC1 (mixture of isomers) [Compound B35] with BRD9 (Homo sapiens, UniProt Q9H8M2)?
A. 10 to 25 nM

Q. Recall the reported DC50 of COc1cc(-c2cn(C)c(=O)c(C)c2C)cc(OC)c1CN(C)Cc1cccc(C2CCCN2C(=O)/C(C#N)=C/C(C)(C)C)c1 (mixture of isomers) [Compound B78] on BRD9 (Homo sapiens, UniProt Q9H8M2) and write it down.
A. 10 to 25 nM

Q. Give the observed DC50 of COc1cc(-c2cn(C)c(=O)c(C)c2C)cc(OC)c1C(=O)N1CCCN(Cc2cccc3c2CCN(C(=O)/C(C#N)=C/C(C)(C)C)C3C)CC1 (mixture of isomers) [Compound B65] for BRD9 (Homo sapiens, UniProt Q9H8M2).
A. 1.25 to 10 nM

Q. // fetch DC50 for COc1cc(-c2cn(C)c(=O)c(C)c2C)cc(OC)c1CN1CCC(Oc2cccc(C3CCCN3C(=O)/C(C#N)=C/C(C)(C)C)c2)C1 (mixture of isomers) [Compound B54] ; system: BRD9 (Homo sapiens, UniProt Q9H8M2)
A. < 1.25 nM

Q. Write down the reported DC50 (system: BRD9 (Homo sapiens, UniProt Q9H8M2)) of COc1cc(-c2cn(C)c(=O)c(C)c2C)cc(OC)c1CN1CC2CC(C1)N2Cc1ccc2c(c1)[C@H](C)N(C(=O)/C(C#N)=C/C(C)(C)C)CC2 (single isomer, unassigned) [Compound C63]
A. 1.25 to 10 nM

Q. Specify DC50 for COc1cc(-c2cn(C)c(=O)c(C)c2C)cc(OC)c1CN1CCC(Oc2cccc3c2CCN(C(=O)/C(C#N)=C/c2ccc(C(F)(F)F)cn2)C3C)CC1 (mixture of isomers) [Compound B64] , system BRD9 (Homo sapiens, UniProt Q9H8M2).
A. < 1.25 nM

Q. Find DC50 for COc1cc(-c2cn(C)c(=O)c(C)c2C)cc(OC)c1CN1CCC(COc2ccc3c(c2)[C@H](C)N(C(=O)/C(C#N)=C/C(C)(C)C)CC3)CC1 [Compound C61] on BRD9 (Homo sapiens, UniProt Q9H8M2) and write it down.
A. < 1.25 nM

Q. Recall the reported DC50 of COc1cc(-c2cn(C)c(=O)c(C)c2C)cc(OC)c1CN1CCN(C(=O)c2cccc3c2CCN(C(=O)/C(C#N)=C/C(C)(C)C)C3C)C2(CC2)C1 (mixture of isomers) [Compound C43] when tested on BRD9 (Homo sapiens, UniProt Q9H8M2).
A. 25 to 1000 nM
